# System: SR leukemia
# experiment_notes: NCI tumour cell line growth inhibition, 48 h
test_readout: TGI

compound="CC(C)(CN1CCCCC1)C(=O)CC(SCCS(=O)(=O)O)c1ccc(Cl)cc1 (stereo unspecified)" system="SR leukemia" test_readout=TGI obs_value="4.82 µM"
compound=Cc1cc(=O)n2nc(CSc3nnc(Sc4cc(O)ccc4O)s3)sc2n1 system="SR leukemia" test_readout=TGI obs_value="> 100 µM"
compound=CCOc1ccccc1NC(=O)C1=C(C)NC(C)=C(C(=O)Nc2ccccc2OCC)C1c1ccc([N+](=O)[O-])cc1 system="SR leukemia" test_readout=TGI obs_value="> 100 µM"
compound="COc1ccc(C(=O)O/N=C2/CCCCC2CN(C)C)cc1 (stereo unspecified)" system="SR leukemia" test_readout=TGI obs_value="> 100 µM"
compound="COc1ccc2c(c1)CC[C@@H]1C2CC[C@]2(C)C(=C=CP(=O)(O)O)CCC12 (stereo partly specified)" system="SR leukemia" test_readout=TGI obs_value="> 100 µM"
compound=Cc1ccc(NCCN(C)C)c2c(=O)c3cc(O)ccc3sc12 system="SR leukemia" test_readout=TGI obs_value="4.79 µM"
compound="CC1CCCN1CCCOC(=O)c1ccc(OC2C=CCCC2)cc1 (stereo unspecified)" system="SR leukemia" test_readout=TGI obs_value="59.9 µM"
compound="O=C(O)C1(C(O)c2ccccc2)SCCCS1 (stereo unspecified)" system="SR leukemia" test_readout=TGI obs_value="> 10 µM"
compound=O=c1nc2[nH]c3c(-c4n[nH]c(=O)[nH]c4=O)cccc3c2n[nH]1 system="SR leukemia" test_readout=TGI obs_value="> 100 µM"
compound=COC(=O)c1sc(=NC(=S)N2CCCCC2)sc1C(=O)OC system="SR leukemia" test_readout=TGI obs_value="> 100 µM"
compound=CCN1CCN(c2nc(NNC(=O)c3ccccc3)nc(N3CCN(C(c4ccccc4)c4ccccc4)CC3)n2)CC1 system="SR leukemia" test_readout=TGI obs_value="4.69 µM"
compound=COc1cc(/C=C2/Oc3c(OC)cccc3C2=O)ccc1O system="SR leukemia" test_readout=TGI obs_value="> 100 µM"
compound=O=C(c1ccccc1)c1cc(Cl)ccc1NCn1nnc2ccccc21 system="SR leukemia" test_readout=TGI obs_value="> 100 µM"
compound="COc1c(O)c2c3c(c1OC)-c1ccccc1CC3N(S(=O)(=O)c1ccc(C)cc1)CC2 (stereo unspecified)" system="SR leukemia" test_readout=TGI obs_value="7.09 µM"
compound=Cc1ccc2nc(C(=O)O)c(=O)[nH]c2c1 system="SR leukemia" test_readout=TGI obs_value="> 100 µM"
compound="CCCCCCCCCCCCOC1C(C(CC(=O)N2CCN(Cc3ccc4c(c3)OCO4)CC2)NS(=O)(=O)c2cc(Cl)cc(Cl)c2)OC2OC(C)(C)OC21 (stereo unspecified)" system="SR leukemia" test_readout=TGI obs_value="47.4 µM"

Reference source for all entries: PubChem BioAssay (NCI)
